Molecular target: T1, Anti-PSMA Fab (SEQ ID NOs: 19, 20)
T1 construct: Biotinylated and captured on neutravidin coated plates in the phage ELISA; also called 006 PSMA Fab
Assay: phage binding ELISA on captured anti-PSMA Fab; PSMA antigen as competitor
observedProperty: Anti-PSMA Fab signal in the presence of PSMA
API note: the answer field is a bare number with no unit suffix.

VTKWCIPPWMCEVT (also called Peptide-230) [Phage-1780 (clonal phage displaying the peptide of SEQ ID NO: 2076)]	0.0864

Now for the binder whose Anti-PSMA Fab signal in the presence of PSMA we want.
Lab note: measured Anti-PSMA Fab signal in the presence of PSMA of LEKTCIPTWMCVGF [Phage-1784 (clonal phage displaying the peptide of SEQ ID NO: 2080)] was 0.0732
